- Tested system: Kappa-type opioid receptor (Cavia porcellus)
- Sequence (P41144 whole entry): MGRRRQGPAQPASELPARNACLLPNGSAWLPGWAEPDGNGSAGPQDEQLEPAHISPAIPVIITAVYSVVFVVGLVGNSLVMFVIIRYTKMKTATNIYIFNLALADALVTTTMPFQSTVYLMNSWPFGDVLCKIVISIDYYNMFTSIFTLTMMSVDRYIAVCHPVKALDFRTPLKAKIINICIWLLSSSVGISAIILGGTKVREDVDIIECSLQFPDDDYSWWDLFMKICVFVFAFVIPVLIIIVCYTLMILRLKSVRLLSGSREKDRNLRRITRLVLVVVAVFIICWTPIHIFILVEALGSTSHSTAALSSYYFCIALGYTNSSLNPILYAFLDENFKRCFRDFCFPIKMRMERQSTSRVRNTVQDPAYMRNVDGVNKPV
Reported metric: Ki (nM)

INSERT INTO assay_data (smiles_repr, tested_system, unit_tag, quantitative_readout) VALUES
  ('N[C@@H](Cc1ccc(O)cc1)C(=O)N1Cc2ccccc2C[C@H]1c1nc(-c2ccccc2)c[nH]1', 'Kappa-type opioid receptor (Cavia porcellus)', 'nM', 124);

###

- Tested system: Delta-type opioid receptor (Homo sapiens, UniProt P41143)
- Sequence (P41143 whole entry): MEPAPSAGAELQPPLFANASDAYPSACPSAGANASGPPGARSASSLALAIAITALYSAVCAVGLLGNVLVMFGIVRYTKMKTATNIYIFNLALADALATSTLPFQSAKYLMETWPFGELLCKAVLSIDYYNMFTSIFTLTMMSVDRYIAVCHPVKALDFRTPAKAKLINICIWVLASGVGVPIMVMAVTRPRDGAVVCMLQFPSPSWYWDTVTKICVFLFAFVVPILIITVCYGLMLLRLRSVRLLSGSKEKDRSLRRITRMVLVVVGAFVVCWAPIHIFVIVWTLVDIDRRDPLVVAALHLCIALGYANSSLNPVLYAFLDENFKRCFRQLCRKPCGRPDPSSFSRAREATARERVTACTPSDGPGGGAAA
- Protocol details: Inhibition of delta opioid receptor mediated GTPgammaS binding to CHO cell membranes
pEC50: −log10 of the molar value. Residues, ends and D or L forms follow the SMILES beside them.
# pEC50 annotations
Reported metric: pEC50

INSERT INTO measurements (compound, quantitative_readout) VALUES
  ('CCCc1nc([C@@H]2Cc3ccccc3CN2C(=O)[C@@H](N)Cc2ccc(O)cc2)[nH]c1C', 7.07),
  ('Cc1[nH]c([C@@H]2CCCCN2C(=O)[C@@H](N)Cc2ccc(O)cc2)nc1-c1ccccc1', 6.27),
  ('N[C@@H](Cc1ccc(O)cc1)C(=O)N1Cc2ccccc2C[C@H]1C(=O)NCCc1ccccc1 (HELM PEPTIDE1{Y.[Tic].[c1ccc(CCN[*:1])cc1]}$$$$V2.0)', 7.09),
  ('N[C@@H](Cc1ccc(O)cc1)C(=O)N1Cc2ccccc2C[C@H]1c1nc(-c2ccccc2)c(Br)[nH]1', 8.72),
  ('N[C@@H](Cc1ccc(O)cc1)C(=O)N1Cc2ccccc2C[C@H]1c1nc2ccccc2[nH]1', 7.43);
